Test system: AncSZ
Test: phosphorylation enrichment, bacterial display (enrichment ratio); higher = better substrate or ligand; peptides without Tyr show the background;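 also: 11-residue human phosphosite peptides and single-mutation variants displayed on the E. coli surface, counted by deep sequencing, each peptide's frequency after selection divided by its frequency in the unselected input library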;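 also: frequency after pTyr selection over input frequency; kinase dosed for 20-30% of maximal phosphorylation in three min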
MEASURED_PARAMETER: phosphorylation enrichment
Answers are plain numbers.

Below, 8 sequences whose answers are already recorded.
Exercise: Item FGDTPYIPFRD [CDC14C_Y132] has what recorded phosphorylation enrichment?
Solution: 0.764

Exercise: Item MKKKTYAMGGG [GAN_Y424_I423T] has what recorded phosphorylation enrichment?
Solution: 0.705

Exercise: Item APNEFYDGDHD [HDAC3_Y414] has what recorded phosphorylation enrichment?
Solution: 1.3

Exercise: Item IVAREYYSDAD [CAMK2A_Y106_E109D] has what recorded phosphorylation enrichment?
Solution: 1.04

Exercise: Item EEKKKYYDTKI [CASP5_Y103] has what recorded phosphorylation enrichment?
Solution: 0.818

Exercise: Item KPLMPSMRYSR [SMARCE1_Y73_Y73S] has what recorded phosphorylation enrichment?
Solution: 0.823

Exercise: Item ETKENYGKTLK [CHL1_Y291] has what recorded phosphorylation enrichment?
Solution: 0.526

Exercise: Item HGVSSYDTIIS [LDLR_Y465_V468I] has what recorded phosphorylation enrichment?
Solution: 1.06

For every listed record, write down its phosphorylation enrichment.
1. LSGVIYVILWK [PMP22_Y153_R157W]
2. PYRQWYESHYA [RPS8_Y113]
3. CGTPDYIDPEI [PRKCG_Y521_A523D]
4. DRPASYLDKVR [KRT17_Y98_L95P]
5. LTYHMYADPNI [SOS1_Y618_F623I]

Solution:
1. 1.44
2. 1.61
3. 1.58
4. 0.674
5. 2.56

For every listed record, write down its phosphorylation enrichment.
1. PNRILYGDFQQ [MYH7_Y715_R719Q]
2. KRFRIYHLAIS [BRCA2_Y3009_T3013I_YF]
3. RHFTTYDTNGR [CLCA1_Y665_Y661H]
4. TGQEEYSAMRD [KRAS_Y64_A59T]

Solution:
[0.601, 0.899, 0.93, 1.08]

For every listed record, write down its phosphorylation enrichment.
1. DMDATYRPMFS [JUP_Y701_YF]
2. QGRQTYLPQPA [DDR2_Y813]
3. QAKRKYQEASK [FES_Y156]
4. RHLQEYQDLLN [GFAP_Y349]

Solution:
0.831
0.752
0.46
0.737

For every listed record, write down its phosphorylation enrichment.
1. ILDEAYVMASV [EGFR_Y764]
2. LARHMYDKEFF [MET_Y1230_D1228H_YF]
3. HYGNNYRDVLQ [MACC1_Y803]
4. QQLQGYVPSNY [FRK_Y99_I100V]
5. ALWFIYSHTRS [ENG_Y614_YF]
6. PLQKTYNHNVL [SLC4A1_Y553_Y555H]
7. SISYDYCRVPM [BST2_Y8_T4I]
8. GLTSTYAGIRK [ROBO1_Y932]

Solution:
[1.16, 0.78, 0.622, 0.554, 1.01, 0.657, 3.91, 0.525]

---

Test system: Fer (mouse)
Assay: phosphorylation enrichment, bacterial display (enrichment ratio); higher = better substrate or ligand; peptides without Tyr show the background
MEASURED_PARAMETER: phosphorylation enrichment
Answers are plain numbers.

For every listed record, write down its phosphorylation enrichment.
1. GGFTCYCDGKK [PROS1_Y266_YF]
2. DEYLEYRRIVG [FAM221A_Y20]
3. FFWDGYMPRQF [GSS_Y270_R267W_YF]
4. CDDGKYVYVVT [RPS6KA3_Y488_Y483C]
5. PRSRSYSSTSI [REPS2_Y462]
6. RRIEKYVDQGK [IRAK3_Y61_H57R]

Solution:
[0.511, 0.51, 0.504, 0.798, 0.57, 0.326]

For every listed record, write down its phosphorylation enrichment.
1. PVRIAYDRPRG [SUGP2_Y985]
2. CGTPDYIDPEI [PRKCG_Y521_A523D]
3. EYKKKYSDADI [CKAP5_Y1860]
4. QSVEPYTKQQL [STAT3_Y640]
5. RLAQRYLIWEC [SCN5A_Y694]
6. GTCGGYCSVLG [RAB18_Y202_A198T]
7. DERQPYAHMNG [IGF1R_Y1346]

Solution:
1: 0.746; 2: 0.531; 3: 0.399; 4: 0.543; 5: 0.546; 6: 0.389; 7: 0.456

Exercise: Item NFADPYRQLPF [CTNND2_Y503_Q507P_YF] has what recorded phosphorylation enrichment?
Solution: 0.46

---

Consider the following sequences; for each one, report its phosphorylation enrichment.
System: c-Abl (mouse)
Assay: phosphorylation enrichment, bacterial display (enrichment ratio); higher = better substrate or ligand; peptides without Tyr show the background

For every listed record, write down its phosphorylation enrichment.
1. AFQGKYTPSGQ [ALDOA_Y343_C339Y_YF]
2. ETKGDYEKILV [ANXA1_Y335]
3. LAAAGYDVEKN [H1-3_Y72]
4. ISMAGYSIPEL [EDAR_Y406_T403M]
5. HLRAGYIIPLQ [GAA_Y822]
6. DGTGHYLGNAC [GATA5_Y208_C210G]

Solution:
1: 0.432; 2: 0.82; 3: 0.582; 4: 1.15; 5: 0.681; 6: 0.554

Exercise: Item PLFRVYGLESL [INSR_Y94_L89P] has what recorded phosphorylation enrichment?
Solution: 1.15

---

Consider the following sequences; for each one, report its phosphorylation enrichment.
Molecular target: FGFR1 (UniProt P11362)
Sequence (P11362 whole entry, looked up): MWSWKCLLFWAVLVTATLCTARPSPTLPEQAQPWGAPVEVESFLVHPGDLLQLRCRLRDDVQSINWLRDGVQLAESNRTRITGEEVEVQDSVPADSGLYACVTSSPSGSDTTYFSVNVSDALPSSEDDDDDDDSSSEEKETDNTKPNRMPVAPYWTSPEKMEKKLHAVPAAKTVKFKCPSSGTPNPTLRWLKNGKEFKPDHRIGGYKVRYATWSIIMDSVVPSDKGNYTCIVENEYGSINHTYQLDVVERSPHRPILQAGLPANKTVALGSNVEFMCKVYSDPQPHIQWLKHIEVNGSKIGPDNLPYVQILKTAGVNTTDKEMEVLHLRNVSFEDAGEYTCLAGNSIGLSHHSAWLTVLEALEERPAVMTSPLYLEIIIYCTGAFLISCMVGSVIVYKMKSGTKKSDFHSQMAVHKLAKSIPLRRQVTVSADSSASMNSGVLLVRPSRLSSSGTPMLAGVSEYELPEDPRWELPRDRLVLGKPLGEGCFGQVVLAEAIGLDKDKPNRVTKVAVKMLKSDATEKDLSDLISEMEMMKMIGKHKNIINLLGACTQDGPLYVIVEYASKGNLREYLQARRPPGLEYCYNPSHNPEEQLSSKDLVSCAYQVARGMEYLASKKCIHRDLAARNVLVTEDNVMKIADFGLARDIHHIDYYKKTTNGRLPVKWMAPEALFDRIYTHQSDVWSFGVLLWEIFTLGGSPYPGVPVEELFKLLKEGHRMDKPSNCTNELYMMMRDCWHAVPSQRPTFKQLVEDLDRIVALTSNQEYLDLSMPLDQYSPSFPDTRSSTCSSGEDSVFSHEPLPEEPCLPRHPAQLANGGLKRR
Assay: phosphorylation enrichment, bacterial display (enrichment ratio); higher = better substrate or ligand; peptides without Tyr show the background
One number for each entry.

Exercise: Item RSRSPYSPVLR [CDK13_Y399] has what recorded phosphorylation enrichment?
Solution: 1.06

Exercise: Item SKGFAYVHFDS [PABPC5_Y149_YF] has what recorded phosphorylation enrichment?
Solution: 0.393

Exercise: Item RHTRSYDYTEG [FGF7_Y56_M59T] has what recorded phosphorylation enrichment?
Solution: 0.488

Exercise: Item RDMNAYIRPSP [MMAA_Y207] has what recorded phosphorylation enrichment?
Solution: 0.804

Exercise: Item KSVITYSPTTG [ITGB3BP_Y32] has what recorded phosphorylation enrichment?
Solution: 0.37

Exercise: Item TFRPPYFHRNC [HGD_Y333_YF] has what recorded phosphorylation enrichment?
Solution: 0.617

Exercise: Item DFSLKYATDIP [APC_Y1183_YF] has what recorded phosphorylation enrichment?
Solution: 0.592

Exercise: Item HLRAGYIIPLQ [GAA_Y822] has what recorded phosphorylation enrichment?
Solution: 0.367

Exercise: Item LVPPRYARSEI [PKP2_Y194] has what recorded phosphorylation enrichment?
Solution: 0.74

Exercise: Item EIPTQYEAMAS [GFAP_Y242_R239P] has what recorded phosphorylation enrichment?
Solution: 0.536

For every listed record, write down its phosphorylation enrichment.
1. QAPPVYLDVLG [NTRK1_Y791]
2. ESTPLYPMLFG [SCLY_Y280_F276S]
3. PYRQWYESHYA [RPS8_Y113]
4. LITTLYIGFLG [KCNQ1_Y267]
5. EVLKNYSQQKD [GOLGA4_Y1551_N1552S]
6. LEYNEYFRDLN [HPRT1_Y198_D194E]
7. NRLTDYFELLL [BBS10_Y536_P539L_YF]
8. GDEVEYMLVSF [GCLC_Y53]

Solution:
1. 2.33
2. 11.7
3. 1.36
4. 0.712
5. 0.404
6. 1.89
7. 7.17
8. 3.97

For every listed record, write down its phosphorylation enrichment.
1. KKRRSYGNSSD [SELENOK_Y52]
2. DYSLKYATDIP [APC_Y1183]
3. EFENSCIFDIN [GAB1_Y83_Y83C]

Solution:
[0.383, 0.6, 0.45]

---

Test system: c-Abl (mouse)
Assay: phosphorylation enrichment, bacterial display (enrichment ratio); higher = better substrate or ligand; peptides without Tyr show the background
Cut-off 0.7 on phosphorylation enrichment, inclusive. At or above means Satisfied; below means Not satisfied.

Here are 2 sequences together with their reported answers.
Exercise: Does phosphorylation enrichment meet or surpass 0.7 for DMDATYRPMFS [JUP_Y701_YF] ?
Solution: Satisfied

Exercise: Does phosphorylation enrichment meet or surpass 0.7 for LSDGPYSNSYE [EPOR_Y485_P488S] ?
Solution: Satisfied

More entries:
Exercise: Does phosphorylation enrichment meet or surpass 0.7 for IGEGTYGQVYK [CDK13_Y716] ?
Solution: Not satisfied

Exercise: Does phosphorylation enrichment meet or surpass 0.7 for AALRLYHVSDS [VIL1_Y256_K254R] ?
Solution: Satisfied

Exercise: Does phosphorylation enrichment meet or surpass 0.7 for SIKDKYVTALF [KCNH2_Y611_YF] ?
Solution: Not satisfied

Exercise: Does phosphorylation enrichment meet or surpass 0.7 for NFDRIYIYHLR [MYOF_Y1137_V1136I] ?
Solution: Satisfied

Exercise: Does phosphorylation enrichment meet or surpass 0.7 for RLLRGYNQSAF [HLA-C_Y137_D138N_YF] ?
Solution: Not satisfied

Exercise: Does phosphorylation enrichment meet or surpass 0.7 for SVTCTYSPALF [TP53_Y126_N131Y_YF] ?
Solution: Satisfied

Exercise: Does phosphorylation enrichment meet or surpass 0.7 for KLQKFYRQNPD [EHHADH_Y683_YF] ?
Solution: Not satisfied

Exercise: Does phosphorylation enrichment meet or surpass 0.7 for PNATLYKMTSI [SERPINA7_Y40_S43T] ?
Solution: Satisfied

Exercise: Does phosphorylation enrichment meet or surpass 0.7 for FQRLQYIKQLG [SAMHD1_Y146_R145Q] ?
Solution: Not satisfied

Exercise: Does phosphorylation enrichment meet or surpass 0.7 for IWGKKYPTCNS [PTPRZ1_Y53_N48I] ?
Solution: Not satisfied
